- Tested Target: Sho1, P40073
- Sequence (P40073 287-367): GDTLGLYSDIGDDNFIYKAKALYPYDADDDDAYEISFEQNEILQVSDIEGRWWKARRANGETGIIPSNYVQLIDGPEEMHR
- Assay Details: SPOT array
- Settings: median of control spots 1148
Readout Name: SPOT intensity
Could you keep your reply to the number by itself?

RRTRLRPPTPLSQLL 39
NSMRPPLLIPAATTK 39

Kindly review the next binder as well.
# SPOT intensity of HPRFVSPRIPSRIVK = 40
